Recorded Ph-p38 MFI at 0.4 nM Ab (500 pM human IL-33, primary basophils) for the following binders
# tested_on: T1, human IL-33 (R&D Systems, #3625-IL-010/CF) (human) (UniProt O95760)
# T1 sequence (looked up): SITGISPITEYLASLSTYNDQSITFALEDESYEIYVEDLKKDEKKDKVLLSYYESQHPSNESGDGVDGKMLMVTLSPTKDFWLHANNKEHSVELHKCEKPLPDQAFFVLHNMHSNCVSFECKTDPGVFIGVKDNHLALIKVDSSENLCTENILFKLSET
The answer should read as a number with its unit following.

H4H9672P (antibody, from another filing, IgG4, V domains shown) VH: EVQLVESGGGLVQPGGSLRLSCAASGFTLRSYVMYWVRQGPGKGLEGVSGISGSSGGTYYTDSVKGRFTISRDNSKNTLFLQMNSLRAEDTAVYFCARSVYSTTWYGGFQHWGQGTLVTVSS VL: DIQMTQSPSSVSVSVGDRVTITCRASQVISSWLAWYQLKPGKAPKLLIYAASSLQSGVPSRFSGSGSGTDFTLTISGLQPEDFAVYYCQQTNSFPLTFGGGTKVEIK = 113 MFI
H4H9665P (antibody, from another filing, IgG4, V domains shown) VH: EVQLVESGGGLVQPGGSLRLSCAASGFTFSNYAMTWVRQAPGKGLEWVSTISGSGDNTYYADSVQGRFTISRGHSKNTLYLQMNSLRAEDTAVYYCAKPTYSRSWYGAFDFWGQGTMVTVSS VL: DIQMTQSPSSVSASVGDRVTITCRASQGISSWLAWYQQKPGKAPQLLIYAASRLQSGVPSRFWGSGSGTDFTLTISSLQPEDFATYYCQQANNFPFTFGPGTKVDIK = 106 MFI
H4H9675P (antibody, from another filing, IgG4, V domains shown) VH: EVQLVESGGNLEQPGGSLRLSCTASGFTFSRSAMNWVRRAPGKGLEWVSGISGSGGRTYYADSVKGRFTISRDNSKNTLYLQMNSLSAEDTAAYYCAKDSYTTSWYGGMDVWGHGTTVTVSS VL: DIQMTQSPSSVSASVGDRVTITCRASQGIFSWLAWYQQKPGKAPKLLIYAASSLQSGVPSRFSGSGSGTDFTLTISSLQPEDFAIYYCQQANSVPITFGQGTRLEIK = 48 MFI
H4H9671P (antibody, from another filing, IgG4, V domains shown) VH: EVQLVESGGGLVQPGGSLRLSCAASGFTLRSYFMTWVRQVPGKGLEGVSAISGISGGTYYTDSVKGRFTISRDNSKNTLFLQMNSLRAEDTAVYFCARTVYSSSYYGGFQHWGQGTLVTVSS VL: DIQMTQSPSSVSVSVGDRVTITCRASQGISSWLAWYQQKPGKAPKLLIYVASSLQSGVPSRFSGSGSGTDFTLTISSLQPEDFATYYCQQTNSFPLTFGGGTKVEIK = 122 MFI

The binder identified as H4H9660P (antibody, from another filing, IgG4, V domains shown) VH: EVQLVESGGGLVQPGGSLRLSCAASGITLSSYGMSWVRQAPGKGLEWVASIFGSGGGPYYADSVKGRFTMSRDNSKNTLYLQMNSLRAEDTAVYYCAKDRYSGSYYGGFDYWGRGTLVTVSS VL: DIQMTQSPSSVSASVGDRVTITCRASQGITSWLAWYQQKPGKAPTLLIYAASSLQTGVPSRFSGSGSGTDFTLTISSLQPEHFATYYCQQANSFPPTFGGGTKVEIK registered its Ph-p38 MFI at 0.4 nM Ab (500 pM human IL-33, primary basophils) at 105 MFI

Documented Ph-p38 MFI at 0.4 nM Ab (500 pM human IL-33, primary basophils) of H4H9670P (antibody, from another filing, IgG4, V domains shown) VH: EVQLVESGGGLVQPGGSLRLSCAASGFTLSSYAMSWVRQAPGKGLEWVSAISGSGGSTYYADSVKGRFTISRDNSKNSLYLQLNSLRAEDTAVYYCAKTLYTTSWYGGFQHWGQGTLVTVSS VL: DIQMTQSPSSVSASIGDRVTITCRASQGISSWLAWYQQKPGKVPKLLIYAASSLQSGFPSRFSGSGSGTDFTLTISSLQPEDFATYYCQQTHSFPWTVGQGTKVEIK : 118 MFI
